Values from patent US12570655B2

Target: AKT1 E17K (Homo sapiens, UniProt P31749, E17K)
Sequence (P31749 whole entry E17K): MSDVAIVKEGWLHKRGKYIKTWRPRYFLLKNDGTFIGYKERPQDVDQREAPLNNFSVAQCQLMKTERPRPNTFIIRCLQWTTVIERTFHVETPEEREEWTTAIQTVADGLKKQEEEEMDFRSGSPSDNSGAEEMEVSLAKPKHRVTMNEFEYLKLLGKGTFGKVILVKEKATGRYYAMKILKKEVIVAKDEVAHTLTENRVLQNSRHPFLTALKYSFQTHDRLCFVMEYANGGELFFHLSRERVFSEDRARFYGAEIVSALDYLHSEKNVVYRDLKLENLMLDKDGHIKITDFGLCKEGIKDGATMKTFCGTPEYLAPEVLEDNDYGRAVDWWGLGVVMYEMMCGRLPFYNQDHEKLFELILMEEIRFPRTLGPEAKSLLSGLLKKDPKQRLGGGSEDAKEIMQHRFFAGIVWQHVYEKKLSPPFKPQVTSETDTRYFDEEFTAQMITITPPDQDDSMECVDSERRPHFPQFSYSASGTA
Experiment: Live cell AKT1 E17K target engagement by NanoBRET competitive probe displacement
Conditions: HEK293 cells transfected with kinase-NanoLuciferase fusion, 2 h at 37° C.
We begin with a simple list: items and their reported IC50.
Measurement Name: IC50 (nM)

[
  {
    "Compound": "C=CC(=O)N1CCC(N[C@H]2CCc3cc(-n4c(-c5cccnc5N)nc5ccc(-c6cccnc6)nc54)ccc32)CC1",
    "Target": "AKT1 E17K (Homo sapiens, UniProt P31749, E17K)",
    "Measurement Name": "IC50",
    "Val": 141
  },
  {
    "Compound": "C=CC(=O)N1CCN(NC2CCc3cc(-n4c(-c5cccnc5N)nc5ccc(-n6ccc(F)n6)nc54)ccc32)CC1 (single isomer, unassigned) [Example 200]",
    "Target": "AKT1 E17K (Homo sapiens, UniProt P31749, E17K)",
    "Measurement Name": "IC50",
    "Val": 15.9
  },
  {
    "Compound": "C=CC(=O)N1CCC(N[C@H]2CCc3cc(-n4c(-c5cccnc5N)nc5cc(-c6cccnc6)cnc54)ccc32)CC1",
    "Target": "AKT1 E17K (Homo sapiens, UniProt P31749, E17K)",
    "Measurement Name": "IC50",
    "Val": 99.4
  },
  {
    "Compound": "C=CC(=O)N1CCC(N[C@@H]2c3ccc(-n4c(-c5cccnc5N)nc5ccc(-n6ccc(F)n6)nc54)cc3CC2F)C[C@@H]1C (single isomer, unassigned) [Example 272]",
    "Target": "AKT1 E17K (Homo sapiens, UniProt P31749, E17K)",
    "Measurement Name": "IC50",
    "Val": 23.6
  },
  {
    "Compound": "Nc1ncccc1-c1nc2ccc(-n3cccn3)nc2n1-c1ccc2c(c1)CC[C@@H]2NC(=O)c1ccccc1NC(=O)C1=CCCC1",
    "Target": "AKT1 E17K (Homo sapiens, UniProt P31749, E17K)",
    "Measurement Name": "IC50",
    "Val": 246
  },
  {
    "Compound": "C=CC(=O)N1CCC(CC2CCc3cc(-n4c(-c5cccnc5N)nc5ccc(-n6cccn6)nc54)ccc32)CC1 (single isomer, unassigned) [Example 343]",
    "Target": "AKT1 E17K (Homo sapiens, UniProt P31749, E17K)",
    "Measurement Name": "IC50",
    "Val": 6.65
  }
]

----------
Target: AKT2 (Homo sapiens)
Experiment: Live cell AKT2 target engagement by NanoBRET competitive probe displacement
Conditions: HEK293 cells transfected with kinase-NanoLuciferase fusion, 2 h at 37° C.

[
  {
    "Molecule": "C=CC(=O)N1CC2(CCC(N[C@H]3CCc4cc(-n5c(-c6cccnc6N)nc6ccc(-n7cccn7)nc65)ccc43)C2)C1 (single isomer, unassigned) [Example 91]",
    "IC50": "558 nM"
  },
  {
    "Molecule": "C=CC(=O)N1CCN(NC2CCc3cc(-n4c(-c5cccnc5N)nc5ccc(-n6ccc(F)n6)nc54)ccc32)CC1 (single isomer, unassigned) [Example 200]",
    "IC50": "80.1 nM"
  },
  {
    "Molecule": "C=CC(=O)Nc1cc(O)ccc1C(=O)N[C@H]1CCc2cc(-n3c(-c4cccnc4N)nc4ccc(-n5cccn5)nc43)ccc21 [Example 70]",
    "IC50": "1340 nM"
  },
  {
    "Molecule": "C=CC(=O)N1CCCC(N[C@H]2CCc3cc(-n4c(-c5cccnc5N)nc5ccc(-n6cccn6)nc54)ccc32)CC1 (single isomer, unassigned) [Example 81]",
    "IC50": "1200 nM"
  },
  {
    "Molecule": "C=CC(=O)N1CCC(N[C@H]2CCc3cc(-n4c(-c5cccnc5N)nc5c(OC)cc(-n6cccn6)nc54)ccc32)CC1 [Example 337]",
    "IC50": "29.4 nM"
  },
  {
    "Molecule": "C=CC(=O)N1CCC(N[C@H]2CCc3cc(-n4c(-c5cccnc5N)nc5ccc(N6CCCOCC6)nc54)ccc32)CC1 [Example 205]",
    "IC50": "835 nM"
  }
]

----------
Molecular target: AKT1 WT (Homo sapiens)
Sequence (P31749 whole entry): as the sequence (P31749 whole entry E17K) above, with K17E counted along it
Experiment: Live cell AKT1 WT target engagement by NanoBRET competitive probe displacement
Conditions: HEK293 cells transfected with kinase-NanoLuciferase fusion, 2 h at 37° C.
Measurement Name: IC50 (nM)

[
  {
    "Compound": "C=CC(=O)N1C[C@H]2C[C@@H](C1)C2N[C@H]1CCc2cc(-n3c(-c4cccnc4N)nc4ccc(-n5cccn5)nc43)ccc21 (single isomer, unassigned) [Example 60]",
    "Measurement Name": "IC50",
    "Qualifier Operator": ">",
    "Val": 1000
  },
  {
    "Compound": "C=CC(=O)N1CCC(N[C@H]2CCc3cc(-n4c(-c5cccnc5N)nc5ccc(-n6cccn6)nc54)ccc32)C(F)C1 (single isomer, unassigned) [Example 104]",
    "Measurement Name": "IC50",
    "Qualifier Operator": "=",
    "Val": 4.52
  },
  {
    "Compound": "C=CC(=O)N1CC(N2CCC(N[C@H]3CCc4cc(-n5c(-c6cccnc6N)nc6ccc(-n7cccn7)nc65)ccc43)CC2)C1",
    "Measurement Name": "IC50",
    "Qualifier Operator": "=",
    "Val": 72.6
  }
]

----------
Molecular target: AKT1 E17K (Homo sapiens, UniProt P31749, E17K)
Test: Live cell AKT1 E17K target engagement by NanoBRET competitive probe displacement
Conditions: HEK293 cells transfected with kinase-NanoLuciferase fusion, 2 h at 37° C.
pIC50: −log10 of the molar value.
We begin with a simple list: items and their reported pIC50.

[
  {
    "Molecule": "C=CC(=O)N1CC2COC(C1)C2N[C@H]1CCc2cc(-n3c(-c4cccnc4N)nc4ccc(-n5cccn5)nc43)ccc21 (stereo partly drawn)",
    "pIC50": 7.15
  },
  {
    "Molecule": "C=CC(=O)N1CCC(N[C@@H]2c3ccc(-n4c(-c5ccccc5)nc5ccc(-c6ccccc6)nc54)cc3CC2F)CC1 (single isomer, unassigned) [Example 325]",
    "pIC50": 8.10
  },
  {
    "Molecule": "C=CC(=O)N1CCC(N[C@H]2CCc3cc(-n4c(-c5cccnc5N)nc5ccc(-n6cccn6)nc54)ccc32)C(OC)C1 (single isomer, unassigned) [Example 118]",
    "pIC50": 7.38
  },
  {
    "Molecule": "C=CC(=O)N1CCc2ccc(C(=O)N[C@H]3CCc4cc(-n5c(-c6cccnc6N)nc6ccc(-n7cccn7)nc65)ccc43)cc21",
    "pIC50": 7.37
  },
  {
    "Molecule": "C=CC(=O)N1[C@H](C)CC(N[C@H]2CCc3cc(-n4c(-c5cccnc5N)nc5ccc(-n6cccn6)nc54)ccc32)C[C@@H]1C (single isomer, unassigned) [Example 88]",
    "pIC50": 7.31
  },
  {
    "Molecule": "C=CC(=O)N1CCC(N[C@@H]2c3ccc(-n4c(-c5cccnc5N)nc5ccc(-n6ccc(OC)n6)nc54)cc3CC2F)CC1 (single isomer, unassigned) [Example 287]",
    "pIC50": 8.11
  }
]

----------
Biological target: AKT2 (Homo sapiens, UniProt P31751)
Sequence (P31751 whole entry): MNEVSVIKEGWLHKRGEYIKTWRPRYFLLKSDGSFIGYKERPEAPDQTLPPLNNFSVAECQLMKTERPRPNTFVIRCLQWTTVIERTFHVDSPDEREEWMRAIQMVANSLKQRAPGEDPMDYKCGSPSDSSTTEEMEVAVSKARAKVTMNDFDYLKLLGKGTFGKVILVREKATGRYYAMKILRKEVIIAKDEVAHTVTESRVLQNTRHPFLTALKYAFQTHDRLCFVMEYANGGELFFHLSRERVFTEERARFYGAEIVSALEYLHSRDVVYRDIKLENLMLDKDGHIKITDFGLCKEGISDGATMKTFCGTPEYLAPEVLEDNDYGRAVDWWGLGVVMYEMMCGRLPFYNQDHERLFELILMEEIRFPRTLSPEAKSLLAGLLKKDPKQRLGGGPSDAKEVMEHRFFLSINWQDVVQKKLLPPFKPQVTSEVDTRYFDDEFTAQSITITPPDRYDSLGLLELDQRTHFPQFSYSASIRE
Test: Live cell AKT2 target engagement by NanoBRET competitive probe displacement
Settings: HEK293 cells transfected with kinase-NanoLuciferase fusion, 2 h at 37° C.
We begin with a simple list: items and their reported IC50.
Measurement Name: IC50 (nM)

[
  {
    "Compound": "C=CC(=O)N1CCC(N(CCOC)[C@H]2CCc3cc(-n4c(-c5cccnc5N)nc5ccc(-n6cccn6)nc54)ccc32)CC1",
    "Target": "AKT2 (Homo sapiens, UniProt P31751)",
    "Val": 2940
  },
  {
    "Compound": "C=CC(=O)Nc1ccccc1C(=O)N[C@H]1CCc2cc(-n3c(-c4cccnc4N)nc4ccc(-n5nccn5)nc43)ccc21",
    "Target": "AKT2 (Homo sapiens, UniProt P31751)",
    "Val": 326
  },
  {
    "Compound": "C=CC(=O)N1CCC(N[C@H]2CCc3cc(-n4c(-c5cccnc5N)nc5ccc(-n6ccc(F)n6)nc54)ccc32)CC1",
    "Target": "AKT2 (Homo sapiens, UniProt P31751)",
    "Val": 980
  },
  {
    "Compound": "C=CC(=O)N1CCC(N[C@H]2CCc3cc(-n4c(-c5cccnc5N)nc5ccc(OC6CC6)nc54)ccc32)CC1",
    "Target": "AKT2 (Homo sapiens, UniProt P31751)",
    "Val": 27
  },
  {
    "Compound": "CN(C)C/C=C/C(=O)Nc1ccccc1C(=O)N[C@H]1CCc2cc(-n3c(-c4cccnc4N)nc4ccc(-n5cccn5)nc43)ccc21",
    "Target": "AKT2 (Homo sapiens, UniProt P31751)",
    "Val": 67.8
  },
  {
    "Compound": "C=CC(=O)N1CCC(N[C@H]2CCc3cc(-n4c(-c5cccnc5N)nc5ccc(-n6ccc(C7(C#N)CC7)n6)nc54)ccc32)CC1",
    "Target": "AKT2 (Homo sapiens, UniProt P31751)",
    "Val": 41.4
  },
  {
    "Compound": "C=CC(=O)N1CCC(N[C@H]2CCc3cc(-n4c(-c5cccnc5N)nc5ccc(-c6ncco6)nc54)ccc32)CC1",
    "Target": "AKT2 (Homo sapiens, UniProt P31751)",
    "Val": 454
  },
  {
    "Compound": "C=CC(=O)N1C[C@@H]2[C@H](C1)[C@@H]2NC1CCc2cc(-n3c(-c4cccnc4N)nc4ccc(-n5cccn5)nc43)ccc21 (stereo partly drawn)",
    "Target": "AKT2 (Homo sapiens, UniProt P31751)",
    "Val": 63.5
  },
  {
    "Compound": "C=CC(=O)N1CCC(N[C@H]2CC(F)c3cc(-n4c(-c5cccnc5N)nc5ccc(-n6cccn6)nc54)ccc32)CC1 (single isomer, unassigned) [Example 233]",
    "Target": "AKT2 (Homo sapiens, UniProt P31751)",
    "Val": 28
  },
  {
    "Compound": "C=CC(=O)N1CCC(N[C@H]2CCc3cc(-n4c(-c5cccnc5N)nc5cc(C(F)(F)F)cnc54)ccc32)CC1",
    "Target": "AKT2 (Homo sapiens, UniProt P31751)",
    "Val": 352
  },
  {
    "Compound": "C=CC(=O)N1CCC(N[C@@H]2c3ccc(-n4c(-c5cccnc5N)nc5ccc(-n6ccc(F)n6)nc54)cc3CC2F)C[C@H]1C (single isomer, unassigned) [Example 274]",
    "Target": "AKT2 (Homo sapiens, UniProt P31751)",
    "Val": 94.4
  },
  {
    "Compound": "C=CC(=O)N1CCC(N[C@H]2CCc3cc(-n4c(-c5cccnc5N)nc5ccc(-n6cccn6)nc54)ccc32)C(F)(F)C1 (single isomer, unassigned) [Example 55]",
    "Target": "AKT2 (Homo sapiens, UniProt P31751)",
    "Val": 1120
  }
]
